Data origin, for the record: PubChem BioAssay AID1778

Please provide measured inhibition for the entries that follow.
target: Kappa-type opioid receptor (Homo sapiens) (UniProt P41145); assay: kappa opioid receptor blockers – cell-based, luminescence, uHTS (AID 1778); details: KOR beta-arrestin recruitment, antagonist mode, active compounds read high; at 10 µM unless noted
Sequence (P41145 whole entry, looked up): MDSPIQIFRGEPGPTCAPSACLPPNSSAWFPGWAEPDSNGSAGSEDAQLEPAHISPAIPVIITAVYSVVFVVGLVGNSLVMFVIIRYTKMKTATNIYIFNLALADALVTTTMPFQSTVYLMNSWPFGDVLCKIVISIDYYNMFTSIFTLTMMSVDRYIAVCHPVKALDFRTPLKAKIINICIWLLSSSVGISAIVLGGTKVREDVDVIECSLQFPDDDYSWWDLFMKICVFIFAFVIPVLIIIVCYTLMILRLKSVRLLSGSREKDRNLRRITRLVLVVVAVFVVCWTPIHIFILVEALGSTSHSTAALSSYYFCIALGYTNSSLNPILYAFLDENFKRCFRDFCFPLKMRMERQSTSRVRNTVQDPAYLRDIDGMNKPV
Among all 290,000 compounds or so, about 260 (0.09%) were called active. Shown is part of a subset that was picked to be rich in actives. Results with a measured potency or affinity are listed apart.
Answers are plain numbers, in %.

As a guide, the following entries are already answered.
[[record]]
compound = "Cc1ccc(-c2nc(N/N=C/c3ccncc3)c3ccccc3n2)cc1"
property_measured = "inhibition"
reported_measurement = 2.4

[[record]]
compound = "CSC(=S)N/N=C(\\C)c1ccc(Br)cc1"
property_measured = "inhibition"
reported_measurement = 46.1

[[record]]
compound = "COCCn1c(=N)c(S(=O)(=O)c2ccc(F)cc2)cc2c(=O)n3cccc(C)c3nc21"
property_measured = "inhibition"
reported_measurement = -2.3


Dear colleague, could you send me inhibition for each of the items below? Thanks.
1. Cn1c(CNC(=O)c2ccco2)nnc1SCC(=O)c1ccccc1
2. COc1cc(C=O)ccc1OCCSc1ccc(Cl)cc1
3. COCc1nnc(NC(=O)CCCOc2ccccc2OC)s1
4. C/C(=N\Nc1nc(-c2ccccn2)nc2ccccc12)c1ccc(F)cc1
5. COc1ccc(C)cc1NC(=O)C(Sc1nnc(Nc2cc(C)ccc2OC)s1)c1ccccc1 (stereo not drawn)

Response given:
1: 0.9; 2: 16.4; 3: -4.2; 4: 31.6; 5: -5.6

====

Please provide measured inhibition for the entries that follow.
target: Kappa-type opioid receptor (Homo sapiens) (UniProt P41145); experiment: kappa opioid receptor blockers – cell-based, luminescence, uHTS (AID 1778); details: KOR beta-arrestin recruitment, antagonist mode, active compounds read high; at 10 µM unless noted
Among all 290,000 compounds or so, about 260 (0.09%) were called active. This is one part of a sample in which actives are shown more often than they occur. Measured potencies and affinities stand elsewhere.

[[record]]
compound = "COc1ccc(OCc2nnc(SCC(=O)Nc3ccccc3C#N)o2)cc1"
reported_measurement = "-9.7% (inactive)"

[[record]]
compound = "O=C1C(=O)N(CCCn2ccnc2)C(c2ccc(Br)cc2)/C1=C(\\O)c1ccc2c(c1)OCCO2 (stereo not given)"
reported_measurement = "-11.2% (inactive)"

[[record]]
compound = "O=C(NCc1ccco1)C(=O)c1cn(CC(=O)N2CCCC2)c2ccccc12"
reported_measurement = "-7.4% (inactive)"

[[record]]
compound = "Cc1ccc(S(=O)(=O)N(Cc2cc3ccc(C)cc3[nH]c2=O)c2ccccc2)cc1"
reported_measurement = "17.5% (inactive)"

[[record]]
compound = "CC(=O)O[C@@H]1[C@H]2[C@@H](C[C@@H](C)[C@@H]3C=CC(=O)[C@@]13C)OC(=O)[C@@H]2C"
reported_measurement = "23.9% (inactive)"


Dear colleague, could you send me inhibition for each of the items below? Thanks.
1. CC1(C)Cc2c(c(-c3ccco3)nc3sc4c(NCC5CCCO5)ncnc4c23)CO1 (stereo not given)
2. N=C1/C(=C\c2ccc(-c3cccc(Cl)c3)o2)C(=O)N=C2SC=C(c3ccccc3)N12
3. CCn1c(SCC(=O)Nc2nc3c(s2)CCCC3)nc2c1c(=O)n(C)c(=O)n2C

Response given:
1: -42.4% (inactive); 2: 29.8% (inactive); 3: -6.8% (inactive)

====

biological target: Kappa-type opioid receptor (Homo sapiens) (UniProt P41145); assay: kappa opioid receptor blockers – cell-based, luminescence, uHTS (AID 1778); settings: KOR beta-arrestin recruitment, antagonist mode, active compounds read high; at 10 µM unless noted
The campaign covered roughly 290,000 compounds. About 260 (0.09%) were called active. For the sample, actives were picked, then their nearest neighbours and some compounds at random. Entries with a potency or affinity are not part of this list.
property measured: inhibition (%)
Numbers only, in %.

As a guide, the following entries are already answered.
[[record]]
compound = "COc1cc(-c2nc3ccccn3c2/N=C/c2cccc(F)c2)ccc1O"
measurement_units = "%"
reported_measurement = -3.3

[[record]]
compound = "O=C1C(Oc2ccccc2)C(c2ccc3c(c2)OCO3)N1CCc1ccc(F)cc1 (stereo not given)"
measurement_units = "%"
reported_measurement = 64

[[record]]
compound = "COc1ccc(CCN2C(=O)C(Oc3ccccc3)C2c2ccc3c(c2)OCO3)cc1 (stereo not given)"
measurement_units = "%"
reported_measurement = -53.4

[[record]]
compound = "O=C(NCCc1ccccn1)c1ccc(OC(F)F)cc1"
measurement_units = "%"
reported_measurement = 19.2

[[record]]
compound = "Cc1ccc(N=Nc2ccc(O)c3ncccc23)cc1"
measurement_units = "%"
reported_measurement = -2.4


Dear colleague, could you send me inhibition for each of the items below? Thanks.
1. CCS(=O)(=O)c1ccc(OC)c(N=Nc2ccc(O)c3ncccc23)c1
2. CN(C)S(=O)(=O)c1cccc(C(=O)Nc2cc(Cl)ccc2O)c1
3. COc1ccccc1N=Nc1ccc(O)c2ncccc12
4. Oc1c(C=Nc2cccnc2)sc2ccccc12
5. Cc1ccc(N=Nc2cc(C)ccc2O)c(C)c1

Response given:
[1.8, -1.5, -19.2, -24.2, 19.5]

====

molecular target: Kappa-type opioid receptor (Homo sapiens); assay: kappa opioid receptor blockers – cell-based, luminescence, uHTS (AID 1778); settings: KOR beta-arrestin recruitment, antagonist mode, active compounds read high; at 10 µM unless noted
The campaign covered roughly 290,000 compounds. About 260 (0.09%) were called active. For the sample, actives were picked, then their nearest neighbours and some compounds at random. Potency and affinity values are given separately.
Please provide measured inhibition for the entries that follow.

[[record]]
molecule = "CN(C)S(=O)(=O)c1cccc(N=c2scc(-c3ccc4c(c3)NC(=O)CO4)n2CC2CCCO2)c1 (configuration not stated)"
property_measured = "inhibition"
reported_measurement = "-17.4% (inactive)"

[[record]]
molecule = "CCN(CC)CCCN=Cc1c(-c2ccccc2)[nH]n(-c2nc3ccccc3s2)c1=O"
property_measured = "inhibition"
reported_measurement = "2.1% (inactive)"


Dear colleague, could you send me inhibition for each of the items below? Thanks.
1. COc1cc(/C=C/c2ccc3cccc(O)c3n2)cc(OC)c1OC
2. CC1(C)CC(=O)c2cc(OCC(=O)NCCN3CCOCC3)ccc2O1
3. FC(F)(F)c1cnc(N2CCCN(C(=S)Nc3ccccc3)CC2)c(Cl)c1
4. Cc1cccc(C)c1NC(=O)C1CCCN1S(=O)(=O)c1ccccc1 (configuration not stated)
5. CN(Cc1ccccc1)c1ccc(C(CC(N)=O)NC(=O)c2ccccc2)cc1[N+](=O)[O-] (configuration not stated)
6. COc1ccc(/C=C2\SC(=N)N(c3ccc(F)cc3)C2=O)cc1OC
7. Clc1cc2cccnc2c2ccccc12
8. O=[N+]([O-])c1ccccc1OC/C(=N\O)c1ccccc1

Response given:
-5.8% (inactive)
-16.7% (inactive)
-20.9% (inactive)
-40.1% (inactive)
-1.2% [at 20 µM] (inactive)
-9.7% (inactive)
1.4% (inactive)
13.6% (inactive)

Dear colleague, could you send me inhibition for each of the items below? Thanks.
1. O=C(N/N=C(\c1ccccc1)c1cccnc1)c1ccc(O)cc1
2. Cc1ccc(SCC(=O)N2CCc3ccccc32)cc1
3. CCCCn1c(-c2cccs2)nc2oc3ccccc3c(=O)c2c1=O

Response given:
1. 28.3% (inactive)
2. -4.7% (inactive)
3. 17.8% (inactive)

====

target: Kappa-type opioid receptor (Homo sapiens); assay: kappa opioid receptor blockers – cell-based, luminescence, uHTS (AID 1778); conditions: KOR beta-arrestin recruitment, antagonist mode, active compounds read high; at 10 µM unless noted
Among all 290,000 compounds or so, about 260 (0.09%) were called active. This excerpt belongs to a sample that is enriched for actives. Results with a measured potency or affinity are listed apart.
property measured: inhibition

As a guide, the following entries are already answered.
[[record]]
compound = "CC(C)Cc1nc2oc3c(Cl)ncnc3c2c2c1CCC2"
reported_measurement = "32.2% (inactive)"

[[record]]
compound = "CCCc1nc2sc3c(=O)[nH]cnc3c2c2c1CCCC2"
reported_measurement = "-21.3% (inactive)"

[[record]]
compound = "O=[N+]([O-])c1cc(Cl)c2cccnc2c1O"
reported_measurement = "1.5% [at 20 µM] (inactive)"

[[record]]
compound = "CCCc1nc2sc3c(=O)n(N)cnc3c2c2c1CCCC2"
reported_measurement = "-14.5% (inactive)"

[[record]]
compound = "COC(=O)Cc1cc(=O)n(-c2nc3ccccc3[nH]2)[nH]1"
reported_measurement = "21.2% (inactive)"

[[record]]
compound = "COc1cc(/C=C/c2ccc3cccc(O)c3n2)cc(Br)c1OC"
reported_measurement = "-20% (inactive)"

[[record]]
compound = "O=C(/C=C/c1ccc([N+](=O)[O-])cc1)Oc1ccc(/C=N/NC(=O)c2ccncc2)cc1"
reported_measurement = "-27.5% (inactive)"

[[record]]
compound = "CNc1ncnc(Sc2ccc(Cl)cc2)c1[N+](=O)[O-]"
reported_measurement = "8.9% (inactive)"


Challenge: # get_value(readout= inhibition, system= Kappa-type opioid receptor (Homo sapiens)) for "N#Cc1ccc(CN2CCN(C(=O)c3ccccc3)CC2)c(Cl)c1"
Response given: -1.5% (inactive)
